# credit: patent US9403823B2

# TEST_TARGET: EGFR (ErbB1) T790M L858R (Homo sapiens, UniProt P00533, L858R/T790M)
# Construct: purchased Invitrogen
# Sequence (P00533 25-1210 T790M/L858R): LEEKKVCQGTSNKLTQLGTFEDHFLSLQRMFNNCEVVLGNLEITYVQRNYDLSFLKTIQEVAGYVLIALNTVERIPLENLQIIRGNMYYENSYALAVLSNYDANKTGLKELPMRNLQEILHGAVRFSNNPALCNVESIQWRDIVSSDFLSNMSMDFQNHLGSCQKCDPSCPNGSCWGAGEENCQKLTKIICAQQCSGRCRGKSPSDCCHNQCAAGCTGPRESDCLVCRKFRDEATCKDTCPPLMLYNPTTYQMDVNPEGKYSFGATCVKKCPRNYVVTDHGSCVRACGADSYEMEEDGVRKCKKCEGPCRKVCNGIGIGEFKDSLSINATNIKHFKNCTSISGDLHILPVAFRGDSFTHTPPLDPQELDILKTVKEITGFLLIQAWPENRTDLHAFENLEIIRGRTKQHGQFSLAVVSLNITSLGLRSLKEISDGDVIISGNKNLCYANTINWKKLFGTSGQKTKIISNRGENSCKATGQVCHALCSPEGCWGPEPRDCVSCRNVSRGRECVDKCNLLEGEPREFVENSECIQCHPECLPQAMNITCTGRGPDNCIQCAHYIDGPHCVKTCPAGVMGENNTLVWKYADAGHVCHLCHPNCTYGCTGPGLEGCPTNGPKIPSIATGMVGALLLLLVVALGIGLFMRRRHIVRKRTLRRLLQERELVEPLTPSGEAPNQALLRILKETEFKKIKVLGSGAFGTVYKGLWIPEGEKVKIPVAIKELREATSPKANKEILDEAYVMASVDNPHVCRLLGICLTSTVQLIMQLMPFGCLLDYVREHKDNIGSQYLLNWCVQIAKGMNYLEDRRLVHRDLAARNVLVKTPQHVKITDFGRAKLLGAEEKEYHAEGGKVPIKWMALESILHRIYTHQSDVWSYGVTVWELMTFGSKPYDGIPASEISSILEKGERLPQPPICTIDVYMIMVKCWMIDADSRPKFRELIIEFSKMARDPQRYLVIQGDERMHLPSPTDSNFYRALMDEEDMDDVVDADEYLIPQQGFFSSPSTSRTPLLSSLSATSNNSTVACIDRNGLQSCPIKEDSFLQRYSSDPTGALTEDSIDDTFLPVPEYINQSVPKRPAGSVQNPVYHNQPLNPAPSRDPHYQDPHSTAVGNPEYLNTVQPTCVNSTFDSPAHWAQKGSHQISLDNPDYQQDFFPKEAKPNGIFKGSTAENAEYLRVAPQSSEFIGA
# ASSAY_METHOD_TEXT: In vitro kinase assay (Z'-LYTE), EGFR (ErbB1) T790M L858R
# Type: biochemical
# EXPERIMENTAL_SETUP: read-out: % of inhibition of the kinase compared to the control
REPORTED_PROPERTY: inhibition at 0.1 µM

COMPOUND	inhibition at 0.1 µM
CC(=O)c1cc2cc(NCc3cc(NC(=O)c4cncc(C(F)(F)F)c4)ccc3C)cnc2[nH]1 [OR0721]	< 50%
CC(=O)c1cc2cc(NC(=O)c3cc(NC(=O)c4ccc(CN5CCN(C)CC5)c(C(F)(F)F)c4)ccc3C)cnc2[nH]1 [OR0781]	≥ 50%

Items follow; give inhibition at 0.1 µM for each.
1. CC(=O)c1cc2cc(NC(=O)c3cc(NC(=O)c4ccc(CN5CCN(C)CC5)cc4)ccc3C)cnc2[nH]1 [OR0780]
2. CC(=O)c1cc2cc(NCc3cc(NC(=O)c4ccc(CN5CCN(C)CC5)c(C(F)(F)F)c4)ccc3C)cnc2[nH]1 [OR0720]

1. < 50%
2. ≥ 50%
